System: velvetleaf
protocol.description: Test B pre/postemergence velvetleaf
Type: in vivo, Abutilon theophrasti
particulars: Preemergence, Rate 250 g/ha; scale of 0 to 10 where 0 is no effect and 10 is complete control
Reported Velvetleaf plant response rating values are given for each entry in this list.
Just the number, please, no unit attached.

Solved entries:
# molecule, system, Velvetleaf plant response rating
measured = [
    ("CCN(C(=O)n1oc(=O)n(C2CC2)c1=O)C1CCCCC1", "velvetleaf", 0),
    ("CC(C)N(C(=O)n1oc(=O)n(CCC2OCCO2)c1=O)c1ccc(F)cc1", "velvetleaf", 7),
    ("CC(C)N(C(=O)n1oc(=O)n(C)c1=O)c1ccc(F)cc1F", "velvetleaf", 10),
]

Considering CC(C)N(C(=O)n1oc(=O)n(N2CCOCC2)c1=O)c1ccc(F)cc1 , its Velvetleaf plant response rating with velvetleaf was recorded as 3

Considering CC(C)N(C(=O)n1oc(=O)n(C2CC3CCC2C3)c1=O)c1ccccc1 (centres unmarked) , its Velvetleaf plant response rating with velvetleaf was recorded as 0

Considering CCc1cccc(CC)c1-n1c(=O)on(C(=O)N(c2ccc(F)cc2)C(C)C)c1=O , its Velvetleaf plant response rating with velvetleaf was recorded as 0

Considering CC1CC1n1c(=O)on(C(=O)N(c2ccccc2)C(C)C)c1=O (centres unmarked) , its Velvetleaf plant response rating with velvetleaf was recorded as 5

Considering COCC(C)n1c(=O)on(C(=O)N(c2ccc(F)cc2F)C(C)C)c1=O (centres unmarked) , its Velvetleaf plant response rating with velvetleaf was recorded as 5

###

Test system: blackgrass
protocol.description: Test B pre/postemergence blackgrass
Format: in vivo, Alopecurus myosuroides
particulars: Postemergence, Rate 500 g/ha; scale of 0 to 10 where 0 is no effect and 10 is complete control
Reported Plant response rating, Blackgrass values are given for each entry in this list.
Just the number, please, no unit attached.

Solved entries:
# molecule, Plant response rating, Blackgrass
measured = [
    ("CCCCCn1c(=O)on(C(=O)N(c2ccccc2)C(C)C)c1=O", 0),
    ("C=CCCCn1c(=O)on(C(=O)N(c2ccccc2)C(C)C)c1=O", 3),
]

# molecule CC(C)N(C(=O)n1oc(=O)n(C(C)CBr)c1=O)c1ccc(F)cc1F (stereo not shown) ; its Plant response rating, Blackgrass = 5

# molecule C=C(Cl)Cn1c(=O)on(C(=O)N(c2ccccc2)C(C)C)c1=O ; its Plant response rating, Blackgrass = 9

###

Test system: pigweed
protocol.description: Test B pre/postemergence pigweed
Assay type: in vivo, Amaranthus retroflexus
particulars: Preemergence, Rate 250 g/ha; scale of 0 to 10 where 0 is no effect and 10 is complete control
Reported Plant response rating, Redroot pigweed values are given for each entry in this list.

Solved entries:
# smi, Plant response rating, Redroot pigweed
data = [
    ("CC(C)N(C(=O)n1oc(=O)n(Cc2ccccc2)c1=O)c1ccc(Cl)cc1", 0),
    ("Cc1ccc(-n2c(=O)on(C(=O)N(c3ccc(F)cc3F)C(C)C)c2=O)c(C)c1", 6),
    ("CC(C)N(C(=O)n1oc(=O)n(-c2ccc(F)cc2F)c1=O)c1ccc(F)cc1F", 5),
    ("COc1cccc(C)c1-n1c(=O)on(C(=O)N(c2ccccc2)C(C)C)c1=O", 0),
]

Next up:
# molecule CN(C(=O)n1oc(=O)n(Cc2cccs2)c1=O)c1ccccc1 ; its Plant response rating, Redroot pigweed = 0
